Experiment notes: Cytotoxicity range-finder (relative survival), with and without S-9
Format: cell-based, mouse
Condition details: mouse, presence of S-9, 1000 μg/ml
Structures can show the parent of a compound that is named as a salt.
Observed property: viability (%)
Numeric only. Scale: %

Task item: Tell me viability reported for CCCCN1CCCC[C@H]1C(=O)Nc1c(C)cccc1C [levobupivacaine HCl]
Reply: 9.1

###

Experiment notes: Cytotoxicity range-finder (relative survival), with and without S-9
Format: cell-based, mouse
Condition details: mouse, absence of S-9, 1000 μg/ml
Where a name gives a salt, the structure may show the parent alone.
Observed property: viability (%)
Quick reminder: number only, in %, skip the unit.

Task item: Give me measured viability, please, for this molecule: CCCCN1CCCC[C@H]1C(=O)Nc1c(C)cccc1C [levobupivacaine HCl]
Reply: 150

###

Experiment notes: Cytotoxicity range-finder (relative survival), with and without S-9
Assay type: cell-based, mouse
Condition details: mouse, presence of S-9, 500 μg/ml
Counter-ions that a name gives are not always drawn.
Observed property: viability
Include the unit after the number when you answer.

Task item: Fill in reported viability for this entry: CCCCN1CCCCC1C(=O)Nc1c(C)cccc1C (stereo not shown) [bupivacaine HCl]
Reply: 12.4%

###

Experiment notes: Cytotoxicity range-finder (relative survival), with and without S-9
Type: cell-based, mouse
Condition details: mouse, absence of S-9, 500 μg/ml
Counter-ions that a name gives are not always drawn.
Observed property: viability (%)
Could you give me the number in %? Just the number is fine.

Task item: Note viability for the molecule shown: CCCCN1CCCCC1C(=O)Nc1c(C)cccc1C (stereo not shown) [bupivacaine HCl]
Reply: 100

These data points were gathered from patent US5910502A.
